Reported IC50 values for the following compounds.
- tested_on: human recombinant MAGL (Homo sapiens (Human), UniProt Q99685)
- Sequence (Q99685 whole entry): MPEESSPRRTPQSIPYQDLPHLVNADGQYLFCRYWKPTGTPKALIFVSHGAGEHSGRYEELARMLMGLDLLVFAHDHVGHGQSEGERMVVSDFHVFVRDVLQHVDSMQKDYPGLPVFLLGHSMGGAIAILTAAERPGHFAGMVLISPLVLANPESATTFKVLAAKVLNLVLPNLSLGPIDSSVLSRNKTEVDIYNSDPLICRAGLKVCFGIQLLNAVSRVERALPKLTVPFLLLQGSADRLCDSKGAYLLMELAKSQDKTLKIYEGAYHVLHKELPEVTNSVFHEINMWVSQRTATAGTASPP
- assay: In vitro inhibition of MAGL activity (inhibitor screening kit, 4-nitrophenylacetate)
- measurement_setup: human recombinant MAGL
endpoint_name: IC50

{"compound": "O=C(NCc1ccccc1)Oc1cccc(-c2cncc(-c3ncn[nH]3)c2)c1", "endpoint_name": "IC50", "measurement": "> 10 µM"}
{"compound": "O=C(NC1CCCC1)Oc1cccc(-c2cncc(-c3ccc[nH]3)c2)c1", "endpoint_name": "IC50", "measurement": "> 10 µM"}
{"compound": "CSc1ccc(OC(=O)NCC2CCCCC2)cc1-c1cncc(-c2nnco2)c1", "endpoint_name": "IC50", "measurement": "> 10 µM"}
{"compound": "COc1cc(OC(=O)NCC2CCCCC2)cc(-c2cncc(-c3nnco3)c2)c1", "endpoint_name": "IC50", "measurement": "> 10 µM"}
{"compound": "O=C(NC1CCCC1)Oc1ccc(O)c(-c2cncc(-c3ncn[nH]3)c2)c1", "endpoint_name": "IC50", "measurement": "> 10 µM"}
{"compound": "O=C(NC1CCCCC1)Oc1ccc(O)c(-c2cncc(-c3nnco3)c2)c1", "endpoint_name": "IC50", "measurement": "> 50 µM"}
{"compound": "O=C(NC1CCCCC1)Oc1cccc(-c2cc(-c3nnco3)ccn2)c1", "endpoint_name": "IC50", "measurement": "> 10 µM"}
{"compound": "CC1CCC(NC(=O)Oc2ccc(OC(F)(F)F)c(-c3cncc(-c4ncco4)c3)c2)CC1 (centres unmarked)", "endpoint_name": "IC50", "measurement": "> 1 µM"}
{"compound": "O=C(NCc1ccccc1)Oc1ccc(O)c(-c2cncc(-c3ncn[nH]3)c2)c1", "endpoint_name": "IC50", "measurement": "> 10 µM"}
{"compound": "CCCCCCCCNC(=O)Oc1cccc(-c2cncc(-c3nncs3)c2)c1", "endpoint_name": "IC50", "measurement": "~10 µM"}
{"compound": "Cc1ccc(-c2cncc(-c3ncco3)c2)cc1OC(=O)NC1CCCCC1", "endpoint_name": "IC50", "measurement": "> 1 µM"}

* * *

- tested_on: human recombinant FAAH (Homo sapiens (Human))
- assay: In vitro inhibition of FAAH activity (fluorescent inhibitor screening kit, AMC arachidonoyl amide)
- Format: biochemical
- measurement_setup: FAAH; values as listed in Table 5; read-out: IC50
pIC50: −log10 of the molar value.

{"molecule": "O=C(NC1CCCCCC1)Oc1cccc(-c2cncc(-c3cccs3)c2)c1 [Example 64]", "tested_on": "human recombinant FAAH (Homo sapiens (Human))", "pIC50": 7.41}
{"molecule": "O=C(NC1CCCCCC1)Oc1ccc(F)c(-c2cncc(-c3ncco3)c2)c1 [Example 87]", "tested_on": "human recombinant FAAH (Homo sapiens (Human))", "pIC50": 7.62}
{"molecule": "O=C(NC1CCCCCC1)Oc1cc(O)cc(-c2cncc(-c3nnco3)c2)c1 [Example 165]", "tested_on": "human recombinant FAAH (Homo sapiens (Human))", "pIC50": 7.59}
{"molecule": "O=C(NC1CCCCCC1)Oc1ccc(OC(F)(F)F)c(-c2cncc(-c3ncco3)c2)c1 [Example 91]", "tested_on": "human recombinant FAAH (Homo sapiens (Human))", "pIC50": 6.31}
{"molecule": "COc1cc(OC(=O)NC2CCCCCC2)cc(-c2cncc(-c3nnco3)c2)c1 [Example 179]", "tested_on": "human recombinant FAAH (Homo sapiens (Human))", "pIC50": 7.04}
{"molecule": "COc1ccc(OC(=O)NC2CCCCCC2)cc1-c1cncc(-c2ncco2)c1 [Example 83]", "tested_on": "human recombinant FAAH (Homo sapiens (Human))", "pIC50": 6.95}
{"molecule": "O=C(NC1CCCCC1)Oc1cccc(-c2cncc(-c3nnco3)n2)c1 [Example 267]", "tested_on": "human recombinant FAAH (Homo sapiens (Human))", "pIC50": 6.85}
{"molecule": "O=C(NC1CCCCCC1)Oc1cc(F)cc(-c2cncc(-c3nnco3)c2)c1 [Example 198]", "tested_on": "human recombinant FAAH (Homo sapiens (Human))", "pIC50": 6.88}

* * *

- tested_on: human recombinant FAAH (Homo sapiens (Human), UniProt O00519)
- Sequence (O00519 whole entry): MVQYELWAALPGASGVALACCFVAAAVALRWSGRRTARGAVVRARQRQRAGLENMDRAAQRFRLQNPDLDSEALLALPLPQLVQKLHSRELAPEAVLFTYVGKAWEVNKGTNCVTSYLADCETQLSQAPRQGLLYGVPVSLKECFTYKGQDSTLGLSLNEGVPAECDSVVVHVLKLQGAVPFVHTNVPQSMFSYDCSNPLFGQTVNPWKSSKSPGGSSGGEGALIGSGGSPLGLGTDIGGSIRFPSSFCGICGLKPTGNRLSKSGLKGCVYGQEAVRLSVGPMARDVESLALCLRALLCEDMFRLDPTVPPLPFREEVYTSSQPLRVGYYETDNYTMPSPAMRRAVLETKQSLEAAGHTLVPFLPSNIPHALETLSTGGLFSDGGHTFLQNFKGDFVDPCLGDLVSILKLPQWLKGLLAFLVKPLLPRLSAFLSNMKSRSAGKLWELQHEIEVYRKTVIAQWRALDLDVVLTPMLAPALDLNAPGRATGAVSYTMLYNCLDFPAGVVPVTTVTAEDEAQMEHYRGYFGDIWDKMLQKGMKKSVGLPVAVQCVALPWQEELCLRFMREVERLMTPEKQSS
- assay: In vitro inhibition of FAAH activity (fluorescent inhibitor screening kit, AMC arachidonoyl amide)
- Format: biochemical
- measurement_setup: human recombinant FAAH; read-out: Inhibition on FAAH activity (IC50)
pIC50: −log10 of the molar value.
Each record here notes measured pIC50.

{"compound": "CCCCCNC(=O)Oc1cccc(-c2cncc(-c3ncco3)c2)c1 [Example 71]", "pIC50": "6.00 to 8.00"}
{"compound": "CCCCCCCCNC(=O)Oc1cccc(-c2cncc(-c3nnn[nH]3)c2)c1 [Example 238]", "pIC50": "7.00 to 8.00"}
{"compound": "O=C(NC12CC3CC(CC(C3)C1)C2)Oc1cccc(-c2cncc(-c3ncco3)c2)c1 [Example 77]", "pIC50": "< 6.00"}
{"compound": "COc1cc(OC(=O)NCC2CCCCC2)cc(-c2cncc(-c3nnco3)c2)c1 [Example 175]", "pIC50": "~7.00"}
{"compound": "O=Cc1cncc(-c2cccc(OC(=O)NC34CC5CC(CC(C5)C3)C4)c2)c1 [Example 21]", "pIC50": "< 6.00"}
{"compound": "COc1ccc(OC(=O)NC2CCCC2)cc1-c1cncc(-c2nnco2)c1 [Example 169]", "pIC50": "7.00 to 8.00"}
{"compound": "N#Cc1cncc(-c2cccc(OC(=O)NC3CCCCCC3)c2)c1 [Example 29]", "pIC50": "~7.00"}
{"compound": "O=C(NCC1CCCCC1)Oc1cccc(-c2cncc(-c3cccs3)c2)c1 [Example 60]", "pIC50": "7.00 to 8.00"}
{"compound": "O=C(Oc1cccc(-c2cncc(-c3nnco3)c2)c1)N1CCCCC1 [Example 141]", "pIC50": "~6.00"}

* * *

- tested_on: human recombinant FAAH (Homo sapiens (Human))
- assay: In vitro inhibition of FAAH activity (fluorescent inhibitor screening kit, AMC arachidonoyl amide)
- Format: biochemical
- measurement_setup: human recombinant FAAH; read-out: Inhibition on FAAH activity (IC50)
# Lookup of reported IC50 keyed by entry

{"molecule": "O=C(NCC1CCCCC1)Oc1cccc(-c2cc(-c3nnco3)ccn2)c1 [Example 257]", "IC50": "10 to 100 nM"}
{"molecule": "O=C(NC1CCCC1)Oc1ccc(O)c(-c2cncc(-c3ncn[nH]3)c2)c1 [Example 229]", "IC50": "10 to 100 nM"}
{"molecule": "O=C(NC1CCCCCC1)Oc1cccc(-c2cncc(-c3nnco3)c2)c1 [Example 137]", "IC50": "10 to 20 nM"}
{"molecule": "CC1CCC(NC(=O)Oc2cccc(-c3cc(-c4nnco4)ccn3)c2)CC1 (centres unmarked) [Example 261]", "IC50": "100 to 1000 nM"}
{"molecule": "O=C(NCc1ccccc1)Oc1cccc(-c2cncc(-c3ncn[nH]3)c2)c1 [Example 221]", "IC50": "100 to 1000 nM"}
{"molecule": "O=C(NCC1CCCCC1)Oc1cccc(-c2cncc(-c3nnco3)c2)c1 [Example 134]", "IC50": "10 to 20 nM"}
{"molecule": "CCCCCCCCNC(=O)Oc1ccc(OC)c(-c2cncc(-c3ncco3)c2)c1 [Example 78]", "IC50": "10 to 100 nM"}
{"molecule": "O=C(NCC1CCCCC1)Oc1cccc(-c2cncc(-c3ncn[nH]3)c2)c1 [Example 220]", "IC50": "10 to 100 nM"}
{"molecule": "O=C(Oc1cccc(-c2cncc(-c3nnco3)c2)c1)N1CCCCCC1 [Example 145]", "IC50": "> 1000 nM"}
{"molecule": "CCCCCCCCNC(=O)Oc1cccc(-c2cncc(-c3ccc[nH]3)c2)c1 [Example 35]", "IC50": "10 to 100 nM"}
{"molecule": "O=C(NC1CCCC1)Oc1cccc(-c2cncc(-c3ncco3)c2)c1 [Example 75]", "IC50": "10 to 1000 nM"}
{"molecule": "CCCCCCCCCCCCNC(=O)Oc1cccc(-c2cncc(-c3nnco3)c2)c1 [Example 131]", "IC50": "10 to 20 nM"}
{"molecule": "O=C(NC1CCCCC1)Oc1ccc(OC(F)(F)F)c(-c2cncc(-c3nnco3)c2)c1 [Example 200]", "IC50": "100 to 1000 nM"}
{"molecule": "CCCCCCCCNC(=O)Oc1cccc(-c2cncc(-c3nnco3)n2)c1 [Example 263]", "IC50": "1 to 10 nM"}
{"molecule": "O=C(NC1CCCCC1)Oc1ccc(O)c(-c2cncc(-c3nnn[nH]3)c2)c1 [Example 248]", "IC50": "> 1000 nM"}
{"molecule": "CCCCCCCCNC(=O)Oc1cc(-c2cncc(-c3ncco3)c2)ccc1OC [Example 84]", "IC50": "100 to 1000 nM"}
{"molecule": "O=C(NCc1ccccc1)Oc1cccc(-c2cc(-c3nnco3)ccn2)c1 [Example 258]", "IC50": "100 to 1000 nM"}
{"molecule": "CC1CCC(NC(=O)Oc2ccc(F)c(-c3cncc(-c4nnco4)c3)c2)CC1 (centres unmarked) [Example 193]", "IC50": "10 to 100 nM"}
{"molecule": "CN(C)c1ccc(OC(=O)NC2CCCCCC2)cc1-c1cncc(-c2nnco2)c1 [Example 185]", "IC50": "100 to 1000 nM"}
{"molecule": "O=C(NC1CCCCCC1)Oc1cccc(-c2cncc(-c3ccc[nH]3)c2)c1 [Example 40]", "IC50": "10 to 100 nM"}
{"molecule": "CCOC(=O)c1cncc(-c2cccc(OC(=O)NC3CCCCC3)c2)c1 [Example 6]", "IC50": "> 100 nM"}
{"molecule": "CN(C)c1ccc(OC(=O)NCC2CCCCC2)cc1-c1cncc(-c2nnco2)c1 [Example 181]", "IC50": "~1000 nM"}
{"molecule": "COc1ccc(OC(=O)NC2CCCC2)cc1-c1cncc(-c2nccs2)c1 [Example 124]", "IC50": "100 to 1000 nM"}
{"molecule": "O=C(NC1CCCCC1)Oc1cccc(-c2cncc(-c3ccno3)c2)c1 [Example 107]", "IC50": "10 to 100 nM"}
{"molecule": "O=C(NC1CCCC1)Oc1cccc(-c2cncc(-c3nnco3)c2)c1 [Example 138]", "IC50": "10 to 100 nM"}
{"molecule": "Cc1cc(OC(=O)NCC2CCCCC2)cc(-c2cncc(-c3ncco3)c2)c1 [Example 99]", "IC50": "100 to 1000 nM"}
{"molecule": "CCCCCCCCNC(=O)Oc1cccc(-c2cncc(-c3nnco3)c2)c1 [Example 130]", "IC50": "1 to 10 nM"}
{"molecule": "O=C(NC1CCCCC1)Oc1ccc(O)c(-c2cncc(-c3nnco3)c2)c1 [Example 158]", "IC50": "124 nM"}
{"molecule": "O=C(NCC1CCCCC1)Oc1ccc(O)c(-c2cncc(-c3ncn[nH]3)c2)c1 [Example 227]", "IC50": "100 to 1000 nM"}
